The reader will find IC50 measurements below, all made with Cytochrome P450 3A4 (Homo sapiens).
Sequence (P08684 whole entry): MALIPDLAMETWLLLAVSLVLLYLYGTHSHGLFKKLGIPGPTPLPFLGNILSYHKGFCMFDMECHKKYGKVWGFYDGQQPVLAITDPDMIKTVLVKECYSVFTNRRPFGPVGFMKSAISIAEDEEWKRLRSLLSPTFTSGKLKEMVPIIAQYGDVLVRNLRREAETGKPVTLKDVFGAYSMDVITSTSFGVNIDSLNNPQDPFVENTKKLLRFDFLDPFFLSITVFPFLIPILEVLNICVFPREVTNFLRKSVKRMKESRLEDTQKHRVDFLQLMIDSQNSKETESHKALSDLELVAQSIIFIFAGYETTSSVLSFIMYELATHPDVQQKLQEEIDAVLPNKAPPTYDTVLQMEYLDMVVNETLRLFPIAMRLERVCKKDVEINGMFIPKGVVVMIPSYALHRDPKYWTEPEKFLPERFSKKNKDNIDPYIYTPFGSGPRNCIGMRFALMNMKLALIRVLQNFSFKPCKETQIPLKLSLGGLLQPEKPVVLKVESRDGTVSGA
Entry rule: numbers only, all in µM.

Some solved cases for reference:
CCCC1COC(Cn2cncn2)(c2ccc(Cl)cc2Cl)O1 (stereo not drawn); 1.04
CC(C)(C)C(=O)C(Oc1ccc(Cl)cc1)n1cncn1 (stereo not drawn); 9.29

Next, consider the following molecule.
Quick one: IC50 for CC(C)(C(=O)c1cccnc1)c1cccnc1 ?
4.93
